Values compiled from patent US5498632A.

system: Bacillus subtilis (ATCC 6051); test: MIC in broth, Gram+ strains; format: cell-based; details: ATCC6051, B. subtilis (ATCC 6051), Mueller-Hinton broth, 37° C., 18 hours, read-out: Minimal Inhibitory Concentration (MIC)
attribute_measured: MIC (µg/mL)
Record the value in µg/mL, omitting the unit from your answer.

Req: Record request: MIC value, item CCCCCCCCCCCOC(=O)CC(C[N+](C)(C)C)OC(=O)CCCCCC (centres unmarked)
Resp: 3.12

Req: Okay, and CCCCCCCCCCCCCCCCOC(=O)CC(C[N+](C)(C)C)OC(=O)CC(C)C (centres unmarked) ?
Resp: 12.5

====

tested on: Enterobacter aerogenes (UM); assay: MIC in broth, Gram- strains; type: cell-based; details: Klebsiella aerogenes, 18 h, read-out: Minimal Inhibitory Concentration (MIC)
Overview of reported MIC across a group of molecules:

Consider the reported MIC for these molecules:
molecule | assayed_target | MIC
CCCCCCCCCCCCOC(=O)CC(C[N+](C)(C)C)OC(=O)C(C)C (centres unmarked) [ST 1038] | Enterobacter aerogenes (UM) | 25 µg/mL
CCCCCCCCCCCCCOC(=O)CC(C[N+](C)(C)C)OC(=O)CC(C)C (centres unmarked) [ST 1033] | Enterobacter aerogenes (UM) | 100 µg/mL
CCCCCCCCCCCOC(=O)CC(C[N+](C)(C)C)OC(=O)CC(C)C (centres unmarked) [ST 722] | Enterobacter aerogenes (UM) | 25 µg/mL

Req: Record request: MIC value, item CCCCCCCCCCCCCOC(=O)CC(C[N+](C)(C)C)OC(=O)CCCCCCC (centres unmarked) [ST 1053]
Resp: > 100 µg/mL

Req: Okay, and CCCCCCCCCCCCCOC(=O)CC(C[N+](C)(C)C)OC(=O)C(C)CCCC (centres unmarked) [ST 1051] ?
Resp: > 100 µg/mL

====

test system: Klebsiella pneumoniae (7823); assay: MIC in broth, Gram- strains; type: cell-based; settings: 18 h, read-out: Minimal Inhibitory Concentration (MIC)
Overview of reported MIC across a group of compounds:
Record the value in µg/mL, omitting the unit from your answer.

Consider the reported MIC for these compounds:
compound | MIC, µg/mL
CCCCCCCCCCCOC(=O)CC(C[N+](C)(C)C)OC(=O)CCC(C)C (centres unmarked) | 12.5
CCCCCCCCCCCOC(=O)CC(C[N+](C)(C)C)OC(=O)C(C)C (centres unmarked) | 12.5
CCCCCCCCCCCOC(=O)CC(C[N+](C)(C)C)OC(=O)CCCCCC (centres unmarked) | 12.5
CCCCCCCCCCCCOC(=O)CC(C[N+](C)(C)C)OC(=O)C(C)C (centres unmarked) | 25

Req: Record request: MIC value, item CCCCCCCCCCCOC(=O)CC(C[N+](C)(C)C)OC(=O)CC(C)C (centres unmarked)
Resp: 12.5

====

Overview of reported MIC across a group of molecules:
tested on: Streptococcus faecalis (UM); test: MIC in broth, Gram+ strains; format: cell-based; details: Enterococcus faecalis; S. faecalis (UM), Mueller-Hinton broth, 37° C., 18 hours; read-out: Minimal Inhibitory Concentration (MIC)

molecule | MIC
CCCCCCCCCCCCCCCCOC(=O)CC(C[N+](C)(C)C)OC(=O)CC(C)C (stereo not shown) | 3.12 µg/mL

Req: Record request: MIC value, item CCCCCCCCCCCCOC(=O)CC(C[N+](C)(C)C)OC(=O)C(C)C (stereo not shown)
Resp: 3.12 µg/mL

====

test system: Pseudomonas aeruginosa (10 E); assay: MIC in broth, Gram- strains; assay type: cell-based; conditions: 18 h, read-out: Minimal Inhibitory Concentration (MIC)
Overview of reported MIC across a group of compounds:
Record the value in µg/mL, omitting the unit from your answer.

compound | MIC [µg/mL]
CCCCCCCCCCCOC(=O)CC(C[N+](C)(C)C)OC(=O)CCC(C)C (centres unmarked) | 50
CCCCCCCCCCCOC(=O)CC(C[N+](C)(C)C)OC(=O)C(C)C (centres unmarked) | 50
CCCCCCCCCCCOC(=O)CC(C[N+](C)(C)C)OC(=O)CC(C)C (centres unmarked) | 50

Consider the record given below.
Req: Record request: MIC value, item CCCCCCCCCCCCOC(=O)CC(C[N+](C)(C)C)OC(=O)C(C)C (centres unmarked)
Resp: 100

====

Test system: Proteus vulgaris (UM)
Assay: MIC in broth, Gram- strains
Format: cell-based
Details: 18 h, read-out: Minimal Inhibitory Concentration (MIC)
Procedure: MICs were determined by a standard microdilution test, using serial two-fold dilutions of the substances in Mueller-Hinton broth. The inoculum was prepared from an overnight culture in Mueller-Hinton broth matching the 0.5 Mc Farland (turbidity) standard (BRAY W. E., Clinical Laboratory Methods, 5th Ed. C. V. MOSBY, St. Louis, Mo. 1957), and was adjusted to a final concentration of 5.0×10^4 colony-forming units/ml. […]
Overview of reported MIC across a group of molecules:

Consider the reported MIC for these molecules:
molecule | MIC
CCCCCCCCCCCCCOC(=O)CC(C[N+](C)(C)C)OC(=O)CC(C)C (stereo not drawn) [ST 1033] | > 100 µg/mL
CCCCCCCCCCCOC(=O)CC(C[N+](C)(C)C)OC(=O)CC(C)C (stereo not drawn) [ST 722] | 50 µg/mL
CCCCCCCCCCCCOC(=O)CC(C[N+](C)(C)C)OC(=O)C(C)C (stereo not drawn) [ST 1038] | 100 µg/mL
CCCCCCCCCCCCCOC(=O)CC(C[N+](C)(C)C)OC(=O)C(C)CCCC (stereo not drawn) [ST 1051] | > 100 µg/mL
CCCCCCCCCCCOC(=O)CC(C[N+](C)(C)C)OC(=O)CCC(C)C (stereo not drawn) [ST 1034] | > 100 µg/mL

Req: Record request: MIC value, item CCCCCCCCCCCOC(=O)CC(C[N+](C)(C)C)OC(=O)CCCCCC (stereo not drawn) [ST 1036]
Resp: > 100 µg/mL

Req: Okay, and CCCCCCCCCCCCCCCCOC(=O)CC(C[N+](C)(C)C)OC(=O)CC(C)C (stereo not drawn) [ST 1001] ?
Resp: > 100 µg/mL

Req: Okay, and CCCCCCCCCCCCCOC(=O)CC(C[N+](C)(C)C)OC(=O)CCCCCC (stereo not drawn) [ST 1050] ?
Resp: > 100 µg/mL

Req: Okay, and CCCCCCCCCCCCCOC(=O)CC(C[N+](C)(C)C)OC(=O)CCCCCCC (stereo not drawn) [ST 1053] ?
Resp: > 100 µg/mL

Req: Okay, and CCCCCCCCCCCCCOC(=O)CC(C[N+](C)(C)C)OC(=O)CCCCC (stereo not drawn) [ST 1052] ?
Resp: > 100 µg/mL

Req: Okay, and CCCCCCCCCCCCOC(=O)CC(C[N+](C)(C)C)OC(=O)CC(C)C (stereo not drawn) [ST 1037] ?
Resp: > 100 µg/mL

Req: Okay, and CCCCCCCCCCCOC(=O)CC(C[N+](C)(C)C)OC(=O)C(C)C (stereo not drawn) [ST 712] ?
Resp: 100 µg/mL

====

test system: Streptococcus faecalis (501); assay: MIC in broth, Gram+ strains; format: cell-based; details: Enterococcus faecalis; S. faecalis (501), Mueller-Hinton broth, 37° C., 18 hours; read-out: Minimal Inhibitory Concentration (MIC)
Overview of reported MIC across a group of molecules:
Record the value in µg/mL, omitting the unit from your answer.

Consider the reported MIC for these molecules:
molecule | value_reported
CCCCCCCCCCCCOC(=O)CC(C[N+](C)(C)C)OC(=O)CC(C)C (centres unmarked) | 3.12
CCCCCCCCCCCCCOC(=O)CC(C[N+](C)(C)C)OC(=O)C(C)CCCC (centres unmarked) | 6.25
CCCCCCCCCCCCCOC(=O)CC(C[N+](C)(C)C)OC(=O)CCCCC (centres unmarked) | 3.12

Req: Record request: MIC value, item CCCCCCCCCCCCCOC(=O)CC(C[N+](C)(C)C)OC(=O)CCCCCCC (centres unmarked)
Resp: 6.25

Req: Okay, and CCCCCCCCCCCOC(=O)CC(C[N+](C)(C)C)OC(=O)CCC(C)C (centres unmarked) ?
Resp: 1.56

Req: Okay, and CCCCCCCCCCCCCOC(=O)CC(C[N+](C)(C)C)OC(=O)CCCCCC (centres unmarked) ?
Resp: 3.12

Req: Okay, and CCCCCCCCCCCCCOC(=O)CC(C[N+](C)(C)C)OC(=O)CC(C)C (centres unmarked) ?
Resp: 3.12

====

Overview of reported MIC across a group of compounds:
system: Staphylococcus aureus (LC1); assay: MIC in broth, Gram+ strains; type: cell-based; settings: S. aureus (LC1), Mueller-Hinton broth, 37° C., 18 hours, read-out: Minimal Inhibitory Concentration (MIC)
Record the value in µg/mL, omitting the unit from your answer.

Consider the reported MIC for these compounds:
compound | unit_descriptor | value_reported
CCCCCCCCCCCOC(=O)CC(C[N+](C)(C)C)OC(=O)CCCCCCCCCC (stereo not shown) [ST 982] | µg/mL | 3.12
CCCCCCCCCCCCOC(=O)CC(C[N+](C)(C)C)OC(=O)C(C)C (stereo not shown) [ST 1038] | µg/mL | 1.56
CCCCCCCCCCCCOC(=O)CC(C[N+](C)(C)C)OC(=O)CC(C)C (stereo not shown) [ST 1037] | µg/mL | 3.12
CCCCCCCCCCCCCCCCOC(=O)CC(C[N+](C)(C)C)OC(=O)CC(C)C (stereo not shown) [ST 1001] | µg/mL | 12.5
CCCCCCCCCCCOC(=O)CC(C[N+](C)(C)C)OC(=O)CCCCCCC (stereo not shown) [ST 1000] | µg/mL | 1.56

Req: Record request: MIC value, item CCCCCCCCCCCOC(=O)CC(C[N+](C)(C)C)OC(=O)CCC(C)C (stereo not shown) [ST 1034]
Resp: 1.56

Req: Okay, and CCCCCCCCCCCCCOC(=O)CC(C[N+](C)(C)C)OC(=O)CC(C)C (stereo not shown) [ST 1033] ?
Resp: 1.56

Req: Okay, and CCCCCCCCCCCOC(=O)CC(C[N+](C)(C)C)OC(=O)CC(C)C (stereo not shown) [ST 722] ?
Resp: 1.56

Req: Okay, and CCCCCCCCCCCOC(=O)CC(C[N+](C)(C)C)OC(=O)CCCCCC (stereo not shown) [ST 1036] ?
Resp: 1.56
